Target: Human MAGL (Homo sapiens (Human), UniProt Q99685)
Sequence (Q99685 whole entry): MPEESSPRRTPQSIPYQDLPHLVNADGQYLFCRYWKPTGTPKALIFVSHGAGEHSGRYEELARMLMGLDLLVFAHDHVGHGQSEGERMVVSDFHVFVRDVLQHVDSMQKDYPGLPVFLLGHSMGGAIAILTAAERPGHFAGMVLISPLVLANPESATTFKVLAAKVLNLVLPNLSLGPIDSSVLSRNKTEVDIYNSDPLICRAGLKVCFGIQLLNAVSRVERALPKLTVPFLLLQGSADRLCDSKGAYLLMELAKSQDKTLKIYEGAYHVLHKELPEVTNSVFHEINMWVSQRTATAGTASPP
Test: Competitive ABPP with recombinant human MAGL expressed in HEK293T cells
Assay type: biochemical
Details: hMAGL in HEK293T cell lysates (Table 7)
readout-name: IC50

The recorded IC50 for COc1cc(N2CCOCC2)ccc1CN1CCN(C(=O)OC(C(F)(F)F)C(F)(F)F)CC1 is < 100 nM

---

// IC50 lookup, one value per entry
Target: MAGL (Mus musculus (Mouse), UniProt O35678)
Sequence (O35678 whole entry): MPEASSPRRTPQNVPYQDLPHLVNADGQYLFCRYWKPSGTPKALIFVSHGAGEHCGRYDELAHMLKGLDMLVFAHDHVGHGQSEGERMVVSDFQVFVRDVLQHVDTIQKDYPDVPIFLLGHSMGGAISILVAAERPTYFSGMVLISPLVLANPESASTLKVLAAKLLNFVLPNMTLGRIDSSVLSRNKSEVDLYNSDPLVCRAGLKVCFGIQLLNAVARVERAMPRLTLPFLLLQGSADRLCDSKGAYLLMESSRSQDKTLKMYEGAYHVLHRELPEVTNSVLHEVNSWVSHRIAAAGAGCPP
Experiment: In vitro competitive activity-based protein profiling (FP-Rh), mouse MAGL
Type: biochemical
Details: mouse brain membrane proteome, competitive ABPP (Table 7)

>  <molecule>
O=C(OC(C(F)(F)F)C(F)(F)F)N1CCN(Cc2ccc(Cl)cc2N2CCC2)CC1 [Example 9ay]

>  <target-of-assay>
MAGL (Mus musculus (Mouse), UniProt O35678)

>  <IC50>
< 100 nM

$$$$
>  <molecule>
CN(C)C(=O)c1cc(-c2ccccc2)ccc1CN1CCN(C(=O)OC(C(F)(F)F)C(F)(F)F)CC1 [Example 11x]

>  <target-of-assay>
MAGL (Mus musculus (Mouse), UniProt O35678)

>  <IC50>
100 to 1000 nM

$$$$
>  <molecule>
O=C(OC(C(F)(F)F)C(F)(F)F)N1CCN(Cc2cccc(N3CCOCC3)c2)CC1 [Example 9ah]

>  <target-of-assay>
MAGL (Mus musculus (Mouse), UniProt O35678)

>  <IC50>
< 100 nM

$$$$
>  <molecule>
O=C(OC(C(F)(F)F)C(F)(F)F)N1CCN(Cc2ccc(-c3ccccc3)cc2F)CC1 [Example 11p]

>  <target-of-assay>
MAGL (Mus musculus (Mouse), UniProt O35678)

>  <IC50>
< 100 nM

$$$$
>  <molecule>
O=C(OC(C(F)(F)F)C(F)(F)F)N1CCN(Cc2ccc(Br)cc2N2CCOCC2)CC1 [Example 9r]

>  <target-of-assay>
MAGL (Mus musculus (Mouse), UniProt O35678)

>  <IC50>
< 100 nM

$$$$

With MAGL (Mus musculus (Mouse), UniProt O35678) as the test system, O=C(OC(C(F)(F)F)C(F)(F)F)N1CCN(Cc2ccc(N3CCCC3)cc2Cl)CC1 [Example 9ab] showed IC50 of 100 to 1000 nM

Value (IC50, MAGL (Mus musculus (Mouse), UniProt O35678)) for record O=C(OC(C(F)(F)F)C(F)(F)F)N1CCN(Cc2ccccc2N2CCOCC2)CC1 [Example 9y] = < 100 nM

# IC50 measured on MAGL (Mus musculus (Mouse), UniProt O35678) for item Cc1cc(-c2ccccc2)ccc1CN1CCN(C(=O)OC(C(F)(F)F)C(F)(F)F)CC1 [Example 11q] = 100 to 1000 nM

Known value: MAGL (Mus musculus (Mouse), UniProt O35678) IC50 of the molecule O=C(OC(C(F)(F)F)C(F)(F)F)N1CCN(Cc2ccc(N3CCCC3)c(F)c2)CC1 [Example 9aa] equals 100 to 1000 nM

The molecule O=C(OC(C(F)(F)F)C(F)(F)F)N1CCN(Cc2ccc(Cl)cc2-n2cccn2)CC1 [Example 9ae] on MAGL (Mus musculus (Mouse), UniProt O35678): IC50 was 100 to 1000 nM

Reading of IC50 for O=C(OC(C(F)(F)F)C(F)(F)F)N1CCN(Cc2ccc(-n3cccn3)c(F)c2)CC1 [Example 9az] with MAGL (Mus musculus (Mouse), UniProt O35678): 100 to 1000 nM
